Give measured IC50 for each item. Keep answers brief.
biological target: DAEFRH-peptide-specific monoclonal antibody (Example 1); assay: inhibition ELISA, competitor plate-bound DAEFRH-C-BSA; inhibitory capacity

DKELRIC [Peptide 3001]: < 0.5 µg/mL
DWELRIC [Peptide 3002]: > 0.5 µg/mL

For the 2 binders below, give their IC50 values.
1. YAEFRGC [Peptide 3005]
2. EAEFRGC [Peptide 3006]

Result:
> 0.5 µg/mL
< 0.5 µg/mL
